Test: Quantitative highthroughput screen to assess conditional lethalithy of NOMO1 cells grown in RPMI1640 with untreated serum (RPMI+s) (AID 1963876); note: nearly all actives have a fitted effect of over 35% in size; note: potency is the fitted concentration of half-maximal effect
Conditions: NOMO1 AML cells in RPMI+serum, CellTiter-Glo viability, 48 h; series mostly up to 45.8 µM
Records with an inconclusive call do not appear. The source made the active and inactive calls. Calls come from the whole dose curve; as a rule, active = well fitted cell-killing curve with a large enough effect; inconclusive = small, poorly fitted or top-dose-only effect; inactive = flat fitted curve, though single readings scatter.
Parameter: Potency

Compound	Result
COc1ccc2c(c1)c(CC(=O)OCC(=O)O)c(C)n2C(=O)c1ccc(Cl)cc1	inactive
O=C(c1ccc(Nc2nccc(-c3cc4ccccc4s3)n2)cc1)N1CCC(N2CCCC2)CC1	26.4 µM (active)
CC(C)OC(=O)C(C(=O)OC(C)C)=C1SC=CS1	inactive
CN(C)CCC=C1c2ccccc2COc2ccc(CC(=O)O)cc21	inactive
COc1cc(C=CC(=O)O)ccc1O	inactive
O=C1CCCC2=C1C(c1[nH]ncc1Cl)N=C(Nc1nc3ccccc3o1)N2 (stereo unspecified)	inactive

Data credit: PubChem BioAssay (NCATS)
